Biological target: human M4 receptor (human Muscarinic receptor subtype 4) (Homo sapiens, UniProt P08173)
Sequence (P08173 1-479): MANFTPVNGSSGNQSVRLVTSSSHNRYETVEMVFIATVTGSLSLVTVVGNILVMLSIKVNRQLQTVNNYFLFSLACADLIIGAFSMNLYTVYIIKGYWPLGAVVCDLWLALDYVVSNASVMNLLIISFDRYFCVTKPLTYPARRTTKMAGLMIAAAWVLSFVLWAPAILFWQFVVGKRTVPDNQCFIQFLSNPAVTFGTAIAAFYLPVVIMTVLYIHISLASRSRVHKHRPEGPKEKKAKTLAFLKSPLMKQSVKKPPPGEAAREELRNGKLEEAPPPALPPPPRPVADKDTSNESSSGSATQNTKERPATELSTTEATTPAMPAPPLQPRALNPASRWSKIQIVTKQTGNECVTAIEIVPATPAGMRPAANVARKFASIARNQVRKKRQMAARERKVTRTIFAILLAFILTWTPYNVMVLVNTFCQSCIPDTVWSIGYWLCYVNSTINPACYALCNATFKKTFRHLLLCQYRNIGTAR
Experiment: hM4 receptor GTPγS binding
Details: CHO membranes, [35S]GTPγS binding
Recorded EC50 by entry

{"columns": ["molecule", "target entity", "EC50"],
 "data": [
  ["CC(C)OC(=O)N1CCC(C)(N2CCC(N3C(=O)NC[C@H]4CCCC[C@@H]43)CC2)CC1 [Example 8]", "human M4 receptor (human Muscarinic receptor subtype 4) (Homo sapiens, UniProt P08173)", "> 30 µM"],
  ["CCOC(=O)N1CCC(C)(N2CCC(N3C(=O)NC[C@H]4CCCC[C@@H]43)CC2)CC1 [Example 7]", "human M4 receptor (human Muscarinic receptor subtype 4) (Homo sapiens, UniProt P08173)", "> 1.6 µM"],
  ["CC(C)OC(=O)N1CCC(N2CCC(N3C(=O)CO[C@H]4CCCC[C@@H]43)CC2)CC1 [Example 10]", "human M4 receptor (human Muscarinic receptor subtype 4) (Homo sapiens, UniProt P08173)", "> 30 µM"],
  ["CC(C)OC(=O)N1CCC(N2CCC(N3C(=O)CO[C@@H]4CCCC[C@H]43)CC2)CC1 [Example 14]", "human M4 receptor (human Muscarinic receptor subtype 4) (Homo sapiens, UniProt P08173)", "> 30 µM"],
  ["CC(C)OC(=O)N1CCC(N2CCC(N3C(=O)NC[C@H]4CCCC[C@@H]43)CC2)CC1 [Example 2]", "human M4 receptor (human Muscarinic receptor subtype 4) (Homo sapiens, UniProt P08173)", "> 20 µM"],
  ["CCOC(=O)N1CCC(C)(N2CCC(N3C(=O)CO[C@H]4CCCC[C@@H]43)CC2)C1 (single isomer, unassigned) [Example 19]", "human M4 receptor (human Muscarinic receptor subtype 4) (Homo sapiens, UniProt P08173)", "> 30 µM"]
]}
